- System: 227483-062-R1-J1-PDC complex spheroids with HUVEC/MSC, viability;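 further: spheroids exposed to compounds for seven days before readout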
- assay.method.text: Anticancer human tumor 227483-062-R1-J1-PDC patient-derived pancreatic carcinoma cell line growth inhibition [CLK]; active means viability on the fitted dose curve at most 10% of control; inactive means the rest
- test.conditions: second compound 3.16 µM; first compound 1 µM
Outcomes: Yes (active), No (inactive)

- compound: "CC1(C)CCC(CN2CCN(c3ccc(C(=O)NS(=O)(=O)c4ccc(NCC5CCOCC5)c([N+](=O)[O-])c4)c(Oc4cnc5[nH]ccc5c4)c3)CC2)=C(c2ccc(Cl)cc2)C1 + CNC(=O)c1ccc(Nc2nc(OC3CCCC3)c3c(-c4ccc5nc(C)oc5c4)c[nH]c3n2)c(OC)c1"
  assay.target: "227483-062-R1-J1-PDC complex spheroids with HUVEC/MSC, viability"
  category: "No"
- compound: "COc1ccc([C@@H](O)c2cc(-c3ncnc4cc(N5CCOCC5)ccc34)c(F)cc2Cl)nn1 + CN1CCN(c2cc(C(=O)Nc3cc4cc(-c5cnn(C)c5)ccc4cn3)ccn2)CC1"
  assay.target: "227483-062-R1-J1-PDC complex spheroids with HUVEC/MSC, viability"
  category: "Yes"
- compound: "C=CC(=O)N1CCN(c2nc(=O)n(-c3c(C)ccnc3C(C)C)c3nc(-c4c(O)cccc4F)c(F)cc23)C(C)C1 (stereo not drawn) + CN1CCN(c2cc(C(=O)Nc3cc4cc(-c5cnn(C)c5)ccc4cn3)ccn2)CC1"
  assay.target: "227483-062-R1-J1-PDC complex spheroids with HUVEC/MSC, viability"
  category: "Yes"
